- TARGET_OR_TEST_SYSTEM: catalytic domain (JH1, amino acids 808-1132) of human JAK2 (Homo sapiens, UniProt O60674)
- Construct: catalytic domain (JH1, amino acids 808-1132) of human JAK2; His (N)
- Sequence (O60674 808-1132): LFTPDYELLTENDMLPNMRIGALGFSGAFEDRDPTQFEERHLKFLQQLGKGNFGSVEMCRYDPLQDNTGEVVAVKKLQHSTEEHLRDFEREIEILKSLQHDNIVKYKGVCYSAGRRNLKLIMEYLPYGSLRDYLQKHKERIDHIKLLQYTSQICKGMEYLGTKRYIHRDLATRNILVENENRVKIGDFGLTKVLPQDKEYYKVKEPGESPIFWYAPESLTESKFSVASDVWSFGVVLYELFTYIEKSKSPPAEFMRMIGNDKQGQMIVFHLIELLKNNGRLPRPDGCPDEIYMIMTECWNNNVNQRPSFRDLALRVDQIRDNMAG
- EXPERIMENTAL_PROTOCOL: JAK2 HTRF Enzyme Activity Assay
- EXPERIMENTAL_CONTEXT: ATP 30 μM, read-out: ENZ 30UMATP
pIC50: −log10 of the molar value. Structures can show the parent of a compound that is named as a salt.
RECORDED_METRIC: pIC50

Q: Please give the measured pIC50 for this molecule: CN1C(=O)C2(CCN(C3(CC#N)CCC3)CC2)c2c1cnc1[nH]c(-c3cnn(CC(C)(C)O)c3)c(-c3ccc(OC(F)(F)F)cc3)c21 [Example 50, trifluoroacetate salt]
Ans: < 5.60

Q: Requested read-out: pIC50. Entry: CN1C(=O)C2(CCN(c3ccncn3)CC2)c2c1cnc1[nH]c(-c3cnn(C)c3)c(C3=CCOCC3)c21 [Example 20, trifluoroacetate salt]
Ans: < 5.60

Q: Item CCS(=O)(=O)N1CC2(C1)CC1(C2)C(=O)N(C)c2cnc3[nH]c(-c4cnn(CCOC)c4)c(-c4ccc5c(cnn5C)c4)c3c21 [Example 88, trifluoroacetate salt] has what recorded pIC50?
Ans: 5.60 to 5.90

Q: Look up pIC50 for this molecule: [2H]C([2H])([2H])n1ncc2cc(-c3c(-c4cnn(C)c4)[nH]c4ncc5c(c34)[C@@]3(CC[C@H](NS(=O)(=O)C4CC4)C3)C(=O)N5C)ccc21 (racemic) [Example 56, trifluoroacetate salt]
Ans: 5.60 to 5.90

Q: I am curious: what pIC50 value has been reported for CC(=O)NC12CC(N3CCC4(CC3)C(=O)N(C)c3cnc5[nH]c(-c6cnn(C)c6)c(-c6ccc7c(cnn7C)c6)c5c34)(C1)C2 [Example 82] ?
Ans: 6.30 to 7.00

Q: Please give the measured pIC50 for this molecule: COCCS(=O)(=O)N1CCC2(CC1)CC1(C2)C(=O)N(C)c2cnc3[nH]c(-c4cnn(C)c4)c(-c4ccccc4)c3c21 [Example 62, trifluoroacetate salt]
Ans: < 5.60

Q: What value of pIC50 has been recorded for this entry: CN1C(=O)C2(CCOC2)c2c1cnc1[nH]c(-c3ccc(CN4CCC(S(C)(=O)=O)CC4)cc3)c(-c3ccccc3)c21 (racemic) [Example 2, trifluoroacetate salt]
Ans: < 5.60

Q: So what does the record say about pIC50 for CCCC(=O)N1CCC2(CC1)CC1(C2)C(=O)N(C)c2cnc3[nH]c(-c4cnn(C)c4)c(-c4ccc5c(cnn5C)c4)c3c21 [Example 59, trifluoroacetate salt] ?
Ans: 5.60 to 5.90

Q: Dear colleague, I am looking for the recorded pIC50 of the following molecule: CN1C(=O)C2(CCN(C3(CC#N)CCC3)CC2)c2c1cnc1[nH]c(-c3ccn(C)c3)c(-c3ccc4c(cnn4C)c3)c21 [Example 42, trifluoroacetate salt]
Ans: 6.30 to 7.00

---

- TARGET_OR_TEST_SYSTEM: pseudo-kinase domain (JH2, amino-acids 536-812) of human V617F mutant JAK2 (Homo sapiens, UniProt O60674, F794H/V617F/W659A/W777A)
- Construct: pseudo-kinase domain (JH2, amino-acids 536-812 with 3 surface mutations W659A, W777A, F794H)
- Sequence (O60674 536-812 V617F/W659A/W777A/F794H): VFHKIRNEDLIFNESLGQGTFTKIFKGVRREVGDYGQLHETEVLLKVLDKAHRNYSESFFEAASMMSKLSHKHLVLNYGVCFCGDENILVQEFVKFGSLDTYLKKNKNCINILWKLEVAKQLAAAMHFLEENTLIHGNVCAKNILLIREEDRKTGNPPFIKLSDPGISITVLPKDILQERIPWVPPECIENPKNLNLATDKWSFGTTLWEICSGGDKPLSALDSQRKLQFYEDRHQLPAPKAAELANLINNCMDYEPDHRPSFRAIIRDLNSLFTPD
- EXPERIMENTAL_PROTOCOL: JAK2 LanthaScreen JH2-V617F Binding Assay
- EXPERIMENTAL_CONTEXT: 1 hour at 25° C.
- Experimental: Example C. JAK2 LanthaScreen JH2-V617F Binding Assay JAK2 JH2-V617F binding assay utilizes pseudo-kinase domain (JH2, amino-acids 536-812 with 3 surface mutations W659A, W777A, F794H) of human V617F mutant JAK2 expressed as C-terminal His-Avi-tagged, biotinylated protein in a baculovirus expression system (BPS Bioscience, Catalog #79498). […] After incubation for 1 hour at 25° C., LanthaScreen signals were read on a PHERAstar FS plate reader (BMG LABTECH). […]
Counter-ions that a name gives are not always drawn.
RECORDED_METRIC: IC50

Q: Query (molecule): [2H]C([2H])([2H])n1ncc2cc(-c3c(-c4cnn(C)c4)[nH]c4ncc5c(c34)[C@@]3(CC[C@H](NS(=O)(=O)C4CC4)C3)C(=O)N5C)ccc21 (racemic) [Example 56, trifluoroacetate salt] ; field requested: IC50
Ans: ≤ 100 nM

Q: Which IC50 reading was recorded for the molecule CN1C(=O)C2(CCN(C3(CC#N)CCCC3)CC2)c2c1cnc1[nH]c(-c3cnn(C)c3)c(-c3ccc4c(cnn4C)c3)c21 [Example 73, trifluoroacetate salt] ?
Ans: ≤ 100 nM

Q: Query: IC50; subject: CC(=O)N1C2CCC1CC1(C2)C(=O)N(C)c2cnc3[nH]c(-c4ccc(CN5CCC(S(C)(=O)=O)CC5)cc4)c(-c4ccccc4)c3c21 (stereo not shown) [Example 13, trifluoroacetate salt]
Ans: 100 to 500 nM

Q: Report IC50 for CON1C(=O)C2(CCN(CC3(CC#N)CC3)C2)c2c1cnc1[nH]c(-c3cnn(C)c3)c(-c3ccc4c(cnn4C)c3)c21 (racemic) [Example 72, trifluoroacetate salt] please.
Ans: 1250 to 2500 nM

Q: May I ask what IC50 has been recorded for [2H]C([2H])([2H])n1ncc2cc(-c3c(-c4cnn(C)c4)[nH]c4ncc5c(c34)[C@@]3(CC[C@H](NC(=O)C4(CC(N)=O)CCC4)C3)C(=O)N5C)ccc21 (racemic) [Example 100, trifluoroacetate salt] ?
Ans: 500 to 1250 nM

Q: Look up IC50: CN1C(=O)C2(CCN(CC3(CC#N)CC3)C2)c2c1cnc1[nH]c(-c3cnn(Cc4ccc(C#N)cc4)c3)c(-c3ccc4c(cnn4C)c3)c21 (racemic) [Example 69, trifluoroacetate salt]
Ans: ≤ 100 nM

Q: Using the record for `[2H]C([2H])([2H])n1ncc2cc(-c3c(-c4cnn5c4CCC5)[nH]c4ncc5c(c34)C3(CCN(C4(CC#N)CCCC4)CC3)C(=O)N5C)ccc21` , report its IC50.
Ans: ≤ 100 nM
